Entries and their Ki(app) values follow.
- target-desc: specific ANP receptor sites on BASM or BAE cells (Bos taurus, UniProt P10730)
- Construct: specific receptor sites on BASM or BAE cells; endogenous in cells; host or cells: cultured BASM and BAE cells
- Sequence (P10730 42-537): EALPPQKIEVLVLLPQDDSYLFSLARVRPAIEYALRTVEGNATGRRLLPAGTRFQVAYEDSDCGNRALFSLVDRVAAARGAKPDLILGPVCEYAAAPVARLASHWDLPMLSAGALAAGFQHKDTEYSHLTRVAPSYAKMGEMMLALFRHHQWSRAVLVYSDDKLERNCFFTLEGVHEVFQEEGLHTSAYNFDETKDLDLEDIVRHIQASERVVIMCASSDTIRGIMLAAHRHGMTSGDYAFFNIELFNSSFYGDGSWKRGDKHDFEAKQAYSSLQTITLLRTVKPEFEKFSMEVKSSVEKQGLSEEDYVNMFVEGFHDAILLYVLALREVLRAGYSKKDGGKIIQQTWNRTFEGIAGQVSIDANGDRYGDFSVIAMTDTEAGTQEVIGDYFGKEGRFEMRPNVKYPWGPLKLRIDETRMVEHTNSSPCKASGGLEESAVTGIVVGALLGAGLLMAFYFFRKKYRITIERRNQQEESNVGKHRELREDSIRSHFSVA
- assay-comment: Competitive displacement receptor binding of (125I)-rANP(126-150) on cultured cells
- Design: species or system bovine
- condition-label: concentration of unlabeled peptide displacing 50% of maximal binding of 0.5 nM (125I)-rANP(126-150); BASM or BAE cells
- Text: Analogous "competitive displacement" receptor binding assays are considered commonplace in the art for examining specific ligand-receptor interactions. Assuming these ANP analogs act at one or more ANP receptor sites, then increased receptor affinity should reflect increased biological potency.
*1 amine or outer side, *2 acyl side, *3 side chain or, on linkers, in order; H or OH if unused. Where a SMILES comes first, the peptide text is derived from it. [ ]: non-standard residue; d: D form. The star is where a group is joined. Acetyl(2-naphthyloxy) = O=C(COc1ccc2ccccc2c1)*; Acetyl(2-naphthyl) = O=C(Cc1ccc2ccccc2c1)*; NH(2S-methylbutyl) = CC[C@H](C)CN*; Hydrocinnamoyl = O=C(CCc1ccccc1)*; X1 = O=C(Cc1ccc(N[*:1])cc1)[*:2]; 4Abz = Nc1ccc(C(=O)O)cc1; Aib = CC(C)(N)C(=O)O; Inp = O=C(O)C1CCNCC1
value-kind: Ki(app) (nM)

compound: CC[C@H](C)[C@H](NC(=O)[C@H](CCCNC(=N)N)NC(=O)[C@H](CC(=O)O)NC(=O)[C@@H](NC(=O)[C@H](CCCNC(=N)N)NC(=O)CNC(=O)CNC(=O)CCc1ccccc1)[C@@H](C)CC)C(=O)NCC(=O)N[C@@H](C)C(N)=O [AP130] (Hydrocinnamoyl-GGRIDRIGA-NH2)
target-desc: specific ANP receptor sites on BASM or BAE cells (Bos taurus, UniProt P10730)
value-kind: Ki(app)
unit-abbrev: nM
quantitative-readout: 8.8
//
compound: CC[C@H](C)[C@H](NC(=O)[C@H](CCCNC(=N)N)NC(=O)[C@H](CC(=O)O)NC(=O)[C@@H](NC[C@H](CCCCN)NC(=O)Cc1ccc(NC(=O)COc2ccc3ccccc3c2)cc1)[C@@H](C)CC)C(N)=O [AP808]
target-desc: specific ANP receptor sites on BASM or BAE cells (Bos taurus, UniProt P10730)
value-kind: Ki(app)
unit-abbrev: nM
quantitative-readout: 98.9
//
compound: CC[C@H](C)[C@H](NC(=O)[C@H](CCCNC(=N)N)NC(=O)[C@H](CC(=O)O)NC(=O)[C@@H](NC(=O)[C@H](C)NC(=O)CNC(=O)CNC(=O)Cc1ccc2ccccc2c1)[C@@H](C)CC)C(N)=O [AP338, (2-NA)--G--G--A--I--D--R--I--NH2] ({Acetyl(2-naphthyl)}-GGAIDRI-NH2)
target-desc: specific ANP receptor sites on BASM or BAE cells (Bos taurus, UniProt P10730)
value-kind: Ki(app)
unit-abbrev: nM
quantitative-readout: 82.6
//
compound: CC[C@H](C)CNC(=O)[C@H](CCCNC(=N)N)NC(=O)[C@H](CC(=O)O)NC(=O)[C@@H](NC(=O)[C@H](CCCNC(=N)N)NC(=O)C1CCN(C(=O)COc2ccc3ccccc3c2)CC1)[C@@H](C)CC [AP810] ({Acetyl(2-naphthyloxy)-Inp}-RIDR-{NH(2S-methylbutyl)})
target-desc: specific ANP receptor sites on BASM or BAE cells (Bos taurus, UniProt P10730)
value-kind: Ki(app)
unit-abbrev: nM
quantitative-readout: 14.1
//
compound: CC[C@H](C)[C@H](NC(=O)[C@H](CCCNC(=N)N)NC(=O)[C@H](CC(=O)O)NC(=O)[C@@H](NC(=O)[C@H](CCCNC(=N)N)NC(=O)Cc1ccc(NC(=O)Cc2ccc3ccccc3c2)cc1)[C@@H](C)CC)C(N)=O [AP564] ({Acetyl(2-naphthyl)}-[X1]RIDRI-NH2)
target-desc: specific ANP receptor sites on BASM or BAE cells (Bos taurus, UniProt P10730)
value-kind: Ki(app)
unit-abbrev: nM
quantitative-readout: 10.1
//
compound: CC[C@H](C)[C@H](NC(=O)[C@H](CCCNC(=N)N)NC(=O)[C@H](CC(=O)O)NC(=O)[C@@H](NC(=O)[C@H](CCCNC(=N)N)NC(=O)c1ccc(NC(=O)Cc2ccc3ccccc3c2)cc1)[C@@H](C)CC)C(N)=O [AP560] ({Acetyl(2-naphthyl)-4Abz}-RIDRI-NH2)
target-desc: specific ANP receptor sites on BASM or BAE cells (Bos taurus, UniProt P10730)
value-kind: Ki(app)
unit-abbrev: nM
quantitative-readout: 68.8
//
compound: CC[C@H](C)[C@H](NC(=O)[C@H](CCCNC(=N)N)NC(=O)[C@H](CC(=O)O)NC(=O)[C@@H](NC(=O)[C@H](CCCNC(=N)N)NC(=O)C(C)(C)NC(=O)CNC(=O)Cc1ccc2ccccc2c1)[C@@H](C)CC)C(N)=O [AP321, (2-NA)--G--(Aib)--R--I--D--R--I--NH2] ({Acetyl(2-naphthyl)}-G[Aib]RIDRI-NH2)
target-desc: specific ANP receptor sites on BASM or BAE cells (Bos taurus, UniProt P10730)
value-kind: Ki(app)
unit-abbrev: nM
quantitative-readout: 33.0
